As shown below, each of these variants has a reported protein stability index value.
B1: TRAF3IP2 (parent)
chain: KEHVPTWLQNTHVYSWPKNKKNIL

# Variants of: B1
# method: protein stability index of a GFP-peptide fusion (GPS, HEK-293T) (PSI 1-6); higher = more stable;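 further: lentivirally expressed fusions sorted by FACS into six bins by GFP to DsRed ratio, PSI derived from sequencing read proportions per bin multiplied by bin number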
# testContext: c terminus: a fixed tail appended

// worked examples, protein stability index included
H12Y; 2.6
T11L; 2.44
S15K; 2.77
N10H; 2.48
K1P; 1.97

State the recorded protein stability index for this entry: `L24V`
2.47

Data provenance is the supplement of paper PMC10567573.
